Target: T1, Fus1, P11710
T1 sequence (P11710 432-512, looked up): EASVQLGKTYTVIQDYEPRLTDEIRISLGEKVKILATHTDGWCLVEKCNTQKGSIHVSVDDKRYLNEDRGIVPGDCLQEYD
Assay: SPOT array
Settings: median of control spots 1200
ENDPOINT_NAME: SPOT intensity

1) ERPKRRAPPPVPKKP ... 0
2) TKIRRRPQQPLTDFT ... 6
3) GKFIPSRPAPKPPSS ... 0
4) ISRRRLPVIMHRLKM ... 15
5) FSRRQSMDIPSKNRN ... 0
6) GERSRPLVISILSSA ... 3
7) NNQRRKPLLLNIGDH ... 28
8) RLSRLLLSLPPESFT ... 81
9) SGVRLPAPPPPPRRG ... 0
10) VKPRQLFPIPLNKVD ... 0
11) NSVPIMPTLPPRPYI ... 0
12) IFLRISINFPLNYPN ... 655
13) IAPIPMPKPNPTHIS ... 0
14) RMVRRRPLRVQFSAR ... 92
15) ANNQGPPNLPARDKS ... 0
16) SSSSSPPPLPTRRDH ... 1
17) DAPASKPSVPPRNYF ... 0
18) TYNRTAFQIPGDQSI ... 0
19) RRSKSLPTTPGIRSG ... 63
20) FYNRTAFQLPGDARV ... 0
21) LRIKRKPVQTFFEFI ... 16

The reported measurements were obtained from paper PMC2756588.
